pIC50: −log10 of the molar value.
pIC50 values for Tyrosine-protein kinase Fyn (Homo sapiens), compiled from several publications.

{"compoundSmiles": "CCN1CCC(Nc2ccc3c(c2)/C(=C(\\c2cccc(C(=N)N)c2)c2nc4ccccc4[nH]2)C(=O)N3)CC1", "pIC50": "5.30 to 6.30"}
{"compoundSmiles": "COc1cc(Nc2ncnc(-c3cccnc3NCc3ccccc3F)n2)cc(OC)c1OC", "pIC50": "< 5.01"}
{"compoundSmiles": "CCN1CCC(Nc2ccc3c(c2)/C(=C(/c2ncc[nH]2)c2ccccc2F)C(=O)N3)CC1", "pIC50": "> 7.30"}
{"compoundSmiles": "COCCN1CCC(Nc2ccc3c(c2)/C(=C(\\c2cccc(F)c2)c2nc(C)c[nH]2)C(=O)N3)CC1", "pIC50": "> 7.30"}
{"compoundSmiles": "COc1cc(Nc2ncnc(Nc3ccccc3F)n2)cc(OC)c1OC", "pIC50": "< 4.92"}
{"compoundSmiles": "Cc1ccc(/C(=C2/C(=O)Nc3ccc(NC4CCN(C)CC4)cc32)c2ncc[nH]2)cc1", "pIC50": "> 7.30"}
{"compoundSmiles": "COc1cc(Nc2ncnc(N3CCCc4ccc(C(F)(F)F)cc43)n2)cc(OC)c1OC", "pIC50": "5.12 to 5.28"}
{"compoundSmiles": "Cc1cccc(F)c1Nc1ccc2c(NC(=O)c3ccc(C4CCN(C)CC4)cc3)n[nH]c2c1", "pIC50": 7.33}

----------
IC50 values for Tyrosine-protein kinase Fyn (Homo sapiens, UniProt P06241), compiled from several publications.
measuredMetric: IC50

{"compound": "CCN1CCC(Nc2ccc3c(c2)/C(=C(\\c2ccc([N+](=O)[O-])cc2)c2nc4ccccc4[nH]2)C(=O)N3)CC1", "measuredTarget": "Tyrosine-protein kinase Fyn (Homo sapiens, UniProt P06241)", "dataValue": "50 to 500 nM"}
{"compound": "CCC(Nc1nc2ccccc2n1-c1ncnc(Nc2cc(OC)c(OC)c(OC)c2)n1)c1ccccc1 (stereo not shown)", "measuredTarget": "Tyrosine-protein kinase Fyn (Homo sapiens, UniProt P06241)", "dataValue": "782 to 4690 nM"}
{"compound": "Cc1nc(Nc2cc(CCc3ccc(F)c(NC(=O)c4cccc(C(F)(F)F)c4)c3)n[nH]2)cc(N2CCOCC2)n1", "measuredTarget": "Tyrosine-protein kinase Fyn (Homo sapiens, UniProt P06241)", "dataValue": "19 nM"}
{"compound": "COc1cc(Nc2ncnc(-c3ccnc(NCCCO)c3)n2)cc(OC)c1OC", "measuredTarget": "Tyrosine-protein kinase Fyn (Homo sapiens, UniProt P06241)", "dataValue": "5820 to 8490 nM"}
{"compound": "COc1cc(O[C@@H]2CCN(C3COC3)CC2(F)F)c2c(Nc3c(F)ccc4c3OCO4)ncnc2c1", "measuredTarget": "Tyrosine-protein kinase Fyn (Homo sapiens, UniProt P06241)", "dataValue": "< 100 nM"}
{"compound": "COc1cc(Nc2ncnc(Nc3cc(-c4ccco4)n[nH]3)n2)cc(OC)c1OC", "measuredTarget": "Tyrosine-protein kinase Fyn (Homo sapiens, UniProt P06241)", "dataValue": "< 977 nM"}
{"compound": "Cc1ccc(Nc2ccc3c(NC(=O)c4ccc(C5CCN(C)CC5)cc4)n[nH]c3n2)c(F)c1", "measuredTarget": "Tyrosine-protein kinase Fyn (Homo sapiens, UniProt P06241)", "dataValue": "115 nM"}
{"compound": "CCN1CCC(Nc2ccc3c(c2)/C(=C(/c2ncc[nH]2)c2ccc(F)cc2F)C(=O)N3)CC1", "measuredTarget": "Tyrosine-protein kinase Fyn (Homo sapiens, UniProt P06241)", "dataValue": "< 50 nM"}
{"compound": "COc1cc(Nc2ncnc(NC3CC3c3ccccc3)n2)cc(OC)c1OC (stereo not shown)", "measuredTarget": "Tyrosine-protein kinase Fyn (Homo sapiens, UniProt P06241)", "dataValue": "1020 to 6100 nM"}
{"compound": "O=C1OCc2ccc(Nc3ncnc(Nc4cc(-c5ccco5)n[nH]4)n3)cc21", "measuredTarget": "Tyrosine-protein kinase Fyn (Homo sapiens, UniProt P06241)", "dataValue": "> 12000 nM"}
{"compound": "COc1cc(Nc2ncnc(-n3ccc4cc(Cl)ccc43)n2)cc(OC)c1OC", "measuredTarget": "Tyrosine-protein kinase Fyn (Homo sapiens, UniProt P06241)", "dataValue": "> 10900 nM"}
{"compound": "COc1cccc(Nc2ncnc(Nc3cc(OC)c(OC)c(OC)c3)n2)c1", "measuredTarget": "Tyrosine-protein kinase Fyn (Homo sapiens, UniProt P06241)", "dataValue": "1040 to 6260 nM"}
{"compound": "COc1cc(O[C@@H]2CCN(C)CC2(F)F)c2c(Nc3c(F)ccc4c3OCO4)ncnc2c1", "measuredTarget": "Tyrosine-protein kinase Fyn (Homo sapiens, UniProt P06241)", "dataValue": "< 100 nM"}
{"compound": "Cc1ccc(NC(=O)c2cc(S(=O)(=O)C3CC3)ccn2)cc1CCc1cc(Nc2cnccn2)[nH]n1", "measuredTarget": "Tyrosine-protein kinase Fyn (Homo sapiens, UniProt P06241)", "dataValue": "20 nM"}
{"compound": "COCCN1CCC(Nc2ccc3c(c2)/C(=C(\\c2cc(F)cc(F)c2)c2nc4ccccc4[nH]2)C(=O)N3)CC1", "measuredTarget": "Tyrosine-protein kinase Fyn (Homo sapiens, UniProt P06241)", "dataValue": "< 50 nM"}
{"compound": "COc1cc(Nc2ncnc(Nc3nc4ccccc4n3C)n2)cc(OC)c1OC", "measuredTarget": "Tyrosine-protein kinase Fyn (Homo sapiens, UniProt P06241)", "dataValue": "> 11000 nM"}

----------
pIC50 values for Tyrosine-protein kinase Fyn (Homo sapiens), compiled from several publications.
pIC50: −log10 of the molar value.

{"molecule": "CCOC(=O)Cc1cn(-c2ncnc(Nc3cc(OC)c(OC)c(OC)c3)n2)c2ccccc12", "pIC50": "< 5.01"}
{"molecule": "CC1(C)CC(Nc2ccc3c(c2)/C(=C(\\c2ccccc2)c2nc4ccccc4[nH]2)C(=O)N3)CC(C)(C)N1", "pIC50": "5.30 to 6.30"}
{"molecule": "NC(=O)c1ccc(Nc2ncnc(-n3c(N)nc4ccccc43)n2)cc1", "pIC50": "5.16 to 5.94"}
{"molecule": "COCCN1CCC(Nc2ccc3c(c2)/C(=C(\\c2ccc(C)cc2)c2ncc[nH]2)C(=O)N3)CC1", "pIC50": "> 7.30"}
{"molecule": "Cc1ccc(NC(=O)c2cccc(C(F)(F)F)c2)cc1CCc1cnc(Nc2cnccn2)s1", "pIC50": 6.84}
{"molecule": "Cc1cc(F)ccc1Oc1cccc2c(=O)cc(N3CCOCC3)[nH]c12", "pIC50": "< 4.00"}
{"molecule": "COc1ccc(Nc2ncnc(Nc3cc(OC)c(OC)c(OC)c3)n2)cc1OC", "pIC50": "< 4.96"}
{"molecule": "COc1ccc(Nc2ncnc(Nc3cc(OC)c(OC)c(OC)c3)n2)cc1O", "pIC50": "> 6.00"}
{"molecule": "Nc1c(N2CCN(C3CCCCC3)CC2)cc(Nc2ccc(C(=O)O)cc2)c2c1C(=O)c1ccccc1C2=O", "pIC50": "< 5.00"}
{"molecule": "COc1cc(Nc2ncnc(Nc3ccc4c(cnn4Cc4ccccc4)c3)n2)cc(OC)c1OC", "pIC50": "> 6.08"}
{"molecule": "CCN1CCC(Nc2ccc3c(c2)/C(=C(\\c2cc(F)cc(F)c2)c2ncc[nH]2)C(=O)N3)CC1", "pIC50": "> 7.30"}
{"molecule": "COc1cc(Nc2ncnc(-n3c(Nc4cc(C)n[nH]4)nc4ccccc43)n2)cc(OC)c1OC", "pIC50": "5.30 to 6.07"}
{"molecule": "COCCOc1ccc(Nc2ncnc(Nc3ccc(C)c(O)c3)n2)cc1OC", "pIC50": "5.22 to 6.00"}
{"molecule": "CN1CC[C@@H](c2ccc(C(=O)Nc3n[nH]c4cc(Nc5ccccc5F)ccc34)cc2)[C@@H](F)C1 (single isomer, unassigned)", "pIC50": 6.69}
{"molecule": "COc1cc(Nc2ncnc(-c3cccnc3NC(C)C)n2)cc(OC)c1OC", "pIC50": "5.22 to 6.00"}
{"molecule": "COc1cc(Nc2ncnc(Nc3cccc4ccccc34)n2)cc(OCCN2CCOCC2)c1OC", "pIC50": "> 6.10"}
{"molecule": "O=C1Nc2ccc(NC3CCNCC3)cc2/C1=C(\\c1cccc(F)c1)c1ncc[nH]1", "pIC50": "> 7.30"}
{"molecule": "COc1cc(Nc2ncnc(Nc3cccc4cccnc34)n2)cc(OC)c1OC", "pIC50": "5.06 to 5.23"}
{"molecule": "CCN1CCC(Nc2ccc3c(c2)/C(=C(/c2cc(F)cc(F)c2)c2nc4cc(F)ccc4[nH]2)C(=O)N3)CC1", "pIC50": "> 7.30"}
{"molecule": "CCN(CC)CCOc1ccc(Nc2ncnc(Nc3cc(OC)c(OC)c(OC)c3)n2)cc1OC", "pIC50": "5.32 to 6.10"}
{"molecule": "CN1CCC(c2ccc(C(=O)Nc3n[nH]c4cc(Nc5ccc(F)cc5F)ccc34)cc2)CC1", "pIC50": 7.01}
{"molecule": "CCN1CCC(Nc2ccc3c(c2)/C(=C(\\c2ccc(F)c(C)c2)c2nc4ccccc4[nH]2)C(=O)N3)CC1", "pIC50": "> 7.30"}
{"molecule": "COc1cc(Nc2ncnc(Nc3ccccc3C)n2)cc(OC)c1OC", "pIC50": "4.91 to 5.02"}
{"molecule": "COc1cc(Nc2ncnc(Nc3cc(-c4ccc(Cl)cc4)n[nH]3)n2)cc(OC)c1OC", "pIC50": "5.28 to 6.05"}
{"molecule": "CCC1(CC)CCN(C(=O)Nc2ccc(C)c(CCc3cc(Nc4nccnc4C)[nH]n3)c2)C1", "pIC50": 8.30}
{"molecule": "COc1cc(Nc2ncnc(-n3ccc4cc(O)ccc43)n2)cc(OC)c1OC", "pIC50": "> 5.99"}
{"molecule": "COc1cc(Nc2ncnc(Nc3cc(-c4cccs4)n[nH]3)n2)cc(OC)c1OC", "pIC50": "> 6.03"}
{"molecule": "CN1CCC(Oc2ccc(C(=O)Nc3n[nH]c4nc(Nc5ccccc5F)ccc34)cc2)CC1", "pIC50": 6.29}
{"molecule": "CCN1CCC(Nc2ccc3c(c2)/C(=C(\\c2ccc(C)c(F)c2)c2ncc[nH]2)C(=O)N3)CC1", "pIC50": "> 7.30"}
{"molecule": "Cc1ccc(NC(=O)c2ccnc(C(C)(C)C#N)c2)cc1CCc1cc(Nc2cnccn2)[nH]n1", "pIC50": 8.00}
{"molecule": "COc1cc(Nc2ncnc(N[C@H](CO)c3ccccc3)n2)cc(OC)c1OC", "pIC50": "4.95 to 5.06"}
{"molecule": "COc1cc(Nc2ncnc(-n3c(NC(CCO)c4ccccc4)nc4ccccc43)n2)cc(OC)c1OC (centres unmarked)", "pIC50": "> 6.12"}
